Molecular target: human P2X3 receptor (Homo sapiens (Human))
Sequence (P56373 whole entry): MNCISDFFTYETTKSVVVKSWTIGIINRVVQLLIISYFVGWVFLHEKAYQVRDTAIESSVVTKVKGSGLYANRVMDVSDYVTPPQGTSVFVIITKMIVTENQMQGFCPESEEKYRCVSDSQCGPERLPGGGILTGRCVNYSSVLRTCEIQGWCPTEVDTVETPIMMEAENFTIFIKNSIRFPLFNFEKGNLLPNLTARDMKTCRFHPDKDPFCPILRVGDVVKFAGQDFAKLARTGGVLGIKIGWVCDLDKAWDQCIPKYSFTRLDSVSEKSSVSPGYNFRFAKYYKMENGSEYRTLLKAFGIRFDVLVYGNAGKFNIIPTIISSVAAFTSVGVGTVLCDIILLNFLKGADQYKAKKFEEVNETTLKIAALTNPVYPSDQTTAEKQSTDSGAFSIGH
Assay: Inhibitory activity on human P2X3 receptor (calcium 6 dye FLIPR assay, agonist α,β-MeATP)
Settings: HEK293-P2X3 stably expressing cell line, FLIPR Tetra
Kindly apply the following: true if IC50 is less than 100 nM, false in every other case.

Below, 3 compounds whose answers are already recorded.
compound=C=C(C)c1cnc(NC)cc1Oc1cnc(N)nc1N grouplabel=true
compound=CC(C)c1cnc(C#Cc2ccc(N(C)C)cc2)cc1Oc1cnc(N)nc1N grouplabel=false
compound=CC(C)c1cnc(Br)cc1Oc1cnc(N)nc1NNC(=O)OC(C)(C)C grouplabel=true

Enquiry: Strictly below 100 nM in IC50? CC(C)c1cnc(Br)cc1Oc1cnc(NCC(O)CO)nc1N (stereo not drawn)
Return: true

Enquiry: Strictly below 100 nM in IC50? `CC(C)c1cnc(C(N)=O)cc1Oc1cnc(N)nc1N`
Return: false

Enquiry: Strictly below 100 nM in IC50? `C=C(C)c1cc(Oc2cnc(N)nc2N)c(C(C)C)cn1`
Return: false

Enquiry: Strictly below 100 nM in IC50? `CC(C)c1cnc(Cl)cc1Sc1cnc(N)nc1N`
Return: false

====

Catalogue of pIC50 readings, one per entry.
Target: human P2X2/3 receptor (Homo sapiens (Human), UniProt P56373+Q9UBL9)
Sequence (Q9UBL9 whole entry): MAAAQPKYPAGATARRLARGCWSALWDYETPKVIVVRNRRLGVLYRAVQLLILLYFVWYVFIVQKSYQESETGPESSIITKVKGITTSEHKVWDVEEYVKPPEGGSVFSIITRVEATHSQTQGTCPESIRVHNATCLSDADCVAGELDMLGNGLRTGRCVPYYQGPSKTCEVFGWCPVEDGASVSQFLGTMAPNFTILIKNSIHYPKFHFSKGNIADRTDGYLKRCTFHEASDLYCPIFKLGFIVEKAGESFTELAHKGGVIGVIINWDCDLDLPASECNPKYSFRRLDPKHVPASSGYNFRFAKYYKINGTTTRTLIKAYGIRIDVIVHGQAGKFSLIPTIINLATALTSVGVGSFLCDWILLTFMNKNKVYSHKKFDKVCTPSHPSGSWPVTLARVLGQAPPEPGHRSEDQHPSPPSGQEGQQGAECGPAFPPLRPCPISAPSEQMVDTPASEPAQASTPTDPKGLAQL
Sequence (P56373 whole entry): as the sequence (P56373 whole entry) above
Assay: Inhibitory activity on human P2X2/3 receptor (calcium 6 dye FLIPR assay, agonist α,β-MeATP)
Details: HEK293-P2X2/3 stably expressing cell line, FLIPR Tetra
Protocol: Biological Assay: Determination of the Inhibitory Activity of the Compounds on Human P2X3 and P2X2/3 Receptors Cells were seeded into a poly-D-lysine-coated 384-well cell culture plate (Corning) at a density of 11,000 cells/well/25 μL of cell inoculation medium, and were cultured in a cell incubator overnight. […]
Scale note: pIC50 = -log10(concentration in M).

Example entries and their recorded answers appear below.
compound=CCc1cc(Oc2cnc(N)nc2N)c(C(C)C)cn1 outcomemeasure=pIC50 reading=6.10
compound=CC(C)c1cnc(C#Cc2ccncc2)cc1Oc1cnc(N)nc1N outcomemeasure=pIC50 reading=6.02

Enquiry: Output pIC50 of `CC(C)c1cnc(NCC(F)(F)F)cc1Oc1cnc(N)nc1N`
Return: 6.43

Enquiry: Output pIC50 of `Cc1cc(Sc2cnc(N)nc2N)c(C(C)C)cn1`
Return: 6.65

Enquiry: Output pIC50 of `CSc1cc(Oc2cnc(N)nc2N)c(C(C)C)cn1`
Return: 7.12

Enquiry: Output pIC50 of `C=C(C)c1cnc(OC)cc1Cc1cnc(N)nc1N`
Return: 6.19

Enquiry: Output pIC50 of `CC(C)c1cnc(Br)cc1Oc1cnc(NCCO)nc1NCCO`
Return: 6.81

Enquiry: Output pIC50 of `CCN(C)CCNc1nc(N)ncc1Oc1cc(Br)ncc1C(C)C`
Return: 7.34

Enquiry: Output pIC50 of `CCN(C)c1cc(Oc2cnc(N)nc2N)c(C(C)C)cn1`
Return: 6.23

====

Target: human P2X3 receptor (Homo sapiens (Human))
Experiment: Inhibitory activity on human P2X3 receptor (calcium 6 dye FLIPR assay, agonist α,β-MeATP)
Settings: HEK293-P2X3 stably expressing cell line, FLIPR Tetra
Kindly apply the following: rule met if IC50 is less than 200 nM, rule not met in every other case.

compound=CC(C)c1cnc(Br)cc1Oc1cnc(N)nc1NCCN1CCOCC1 grouplabel="rule met"
compound=CNc1ncc(Oc2cc(Br)ncc2C(C)C)c(N)n1 grouplabel="rule not met"
compound=CC(C)c1cnc(Br)cc1Oc1cnc(NCCO)nc1N grouplabel="rule met"
compound=C=C(C)c1cnc(OC)cc1Cc1cnc(N)nc1N grouplabel="rule not met"
compound="C#Cc1cc(Oc2cnc(N)nc2NCC(O)CO)c(C(C)C)cn1 (centres unmarked)" grouplabel="rule met"
compound=C=C(OCC)c1cc(Oc2cnc(N)nc2N)c(C(C)C)cn1 grouplabel="rule not met"
compound=COc1cc(Oc2cnc(N)nc2N)c(C)cn1 grouplabel="rule not met"
compound=C=C(C)c1cnc(NCC)cc1Oc1cnc(N)nc1N grouplabel="rule met"
compound=CC(C)c1cnc(C#Cc2ccncc2)cc1Oc1cnc(N)nc1N grouplabel="rule not met"
compound=C#Cc1cc(Oc2cnc(N)nc2NC)c(C(C)C)cn1 grouplabel="rule met"

Enquiry: Strictly below 200 nM in IC50? `COc1cc(Oc2cnc(N)nc2N)c(C(C)C)cn1`
Return: rule met

Enquiry: Strictly below 200 nM in IC50? `C=Cc1cc(Oc2cnc(N)nc2N)c(C(C)C)cn1`
Return: rule met

Enquiry: Strictly below 200 nM in IC50? `CC(C)c1cnc(Br)cc1Oc1cnc(N)nc1NCCN1CCCC1`
Return: rule not met

Enquiry: Strictly below 200 nM in IC50? `C=Cc1cc(Sc2cnc(N)nc2N)c(C(C)C)cn1`
Return: rule met

Enquiry: Strictly below 200 nM in IC50? `CC(C)c1cnc(Cl)cc1Oc1cnc(NC(CO)CO)nc1N`
Return: rule met

Enquiry: Strictly below 200 nM in IC50? `CC(C)c1cnc(N)cc1Oc1cnc(N)nc1N`
Return: rule met

Enquiry: Strictly below 200 nM in IC50? `CCNc1cc(Oc2cnc(N)nc2N)c(C(C)C)cn1`
Return: rule met

Enquiry: Strictly below 200 nM in IC50? `CC(C)c1cnc(C#CC2CC2)cc1Oc1cnc(N)nc1N`
Return: rule not met

Enquiry: Strictly below 200 nM in IC50? `CC(C)c1cnc(Br)cc1Oc1cnc(N)nc1NCCN`
Return: rule met

Enquiry: Strictly below 200 nM in IC50? C#Cc1cc(Oc2cnc(NCC(O)CO)nc2N)c(C(C)C)cn1 (centres unmarked)
Return: rule met

====

Molecular target: human P2X2/3 receptor (Homo sapiens (Human), UniProt P56373+Q9UBL9)
Experiment: Inhibitory activity on human P2X2/3 receptor (calcium 6 dye FLIPR assay, agonist α,β-MeATP)
Conditions: HEK293-P2X2/3 stably expressing cell line, FLIPR Tetra
outcomeMeasure: pIC50
Scale note: pIC50 = -log10(concentration in M).

Example entries and their recorded answers appear below.
molecule="C#Cc1cc(Oc2cnc(N)nc2NCCO)c(C(C)C)cn1 [Compound C211]" outcomemeasure=pIC50 reading=6.92
molecule="CC(C)c1cnc(Br)cc1Oc1cnc(N)nc1NCCN(C)C [Compound C71]" outcomemeasure=pIC50 reading=7.17
molecule="CC(C)c1cnc(Br)cc1Oc1cnc(N)nc1NC(CO)CO [Compound C153]" outcomemeasure=pIC50 reading=7.02
molecule="CC(C)c1cnc(-c2ccccc2)cc1Oc1cnc(N)nc1N [Compound C13]" outcomemeasure=pIC50 reading=6.22
molecule="C#Cc1cc(Oc2cnc(N)nc2NC)c(C(C)C)cn1 [Compound C213]" outcomemeasure=pIC50 reading=6.53
molecule="CC(C)CNc1nc(N)ncc1Oc1cc(Br)ncc1C(C)C [Compound C181]" outcomemeasure=pIC50 reading=7.11

Enquiry: Output pIC50 of CC(C)c1cnc(Br)cc1Oc1cnc(N)nc1NCCO [Compound C175]
Return: 6.85

====

Molecular target: human P2X2/3 receptor (Homo sapiens (Human), UniProt P56373+Q9UBL9)
Assay: Inhibitory activity on human P2X2/3 receptor (calcium 6 dye FLIPR assay, agonist α,β-MeATP)
Conditions: HEK293-P2X2/3 stably expressing cell line, FLIPR Tetra
Class (required): determined from IC50; valid ranges are low-valued (below 200 nM), mid-valued (200 nM to below 500 nM), high-valued (500 nM or more)

compound="CSc1cc(Sc2cnc(N)nc2N)c(C(C)C)cn1 [Compound C91]" grouplabel=mid-valued
compound="COc1cc(OC)c(C#Cc2cc(Oc3cnc(N)nc3N)c(C(C)C)cn2)c(OC)c1 [Compound C145]" grouplabel=high-valued
compound="CC(C)c1cnc(N(C)C)cc1Oc1cnc(N)nc1N [Compound C23]" grouplabel=high-valued
compound="CC#Cc1cc(Oc2cnc(N)nc2N)c(C(C)C)cn1 [Compound C134]" grouplabel=high-valued
compound="CNc1nc(N)ncc1Oc1cc(Br)ncc1C(C)C [Compound C172]" grouplabel=mid-valued
compound="C=C(C)c1cc(Oc2cnc(N)nc2N)c(C(C)C)cn1 [Compound C44]" grouplabel=mid-valued
compound="CC(C)c1cnc(Br)cc1Oc1cnc(N)nc1NCCN [Compound C199]" grouplabel=mid-valued
compound="CC(C)c1cnc(I)cc1Oc1cnc(N)nc1N [Compound C12]" grouplabel=low-valued

Enquiry: Which class does C=C(C)c1cnc(NCC)cc1Oc1cnc(N)nc1N [Compound C214] fall in?
Return: low-valued

====

Catalogue of log10 IC50 readings, one per entry.
Target: human P2X3 receptor (Homo sapiens (Human))
Assay: Inhibitory activity on human P2X3 receptor (calcium 6 dye FLIPR assay, agonist α,β-MeATP)
Conditions: HEK293-P2X3 stably expressing cell line, FLIPR Tetra
Hey, these are logged values: log10 of IC50, nM being the unit before logging.

compound=C#Cc1cc(Oc2cnc(NC(CO)CO)nc2N)c(C(C)C)cn1 outcomemeasure="log10 IC50" reading=2.08
compound=CC(C)c1cnc(-c2ccccc2)cc1Oc1cnc(N)nc1N outcomemeasure="log10 IC50" reading=2.55
compound=CC(C)c1cnc(S(N)(=O)=O)cc1Oc1cnc(N)nc1N outcomemeasure="log10 IC50" reading=2.54
compound=CNc1nc(N)ncc1Oc1cc(Br)ncc1C(C)C outcomemeasure="log10 IC50" reading=2.06
compound=CSc1cc(Oc2cnc(N)nc2NCCN(C)C)c(C(C)C)cn1 outcomemeasure="log10 IC50" reading=2.10

Enquiry: State recorded log10 IC50 with human P2X3 receptor (Homo sapiens (Human)), entry `CC(C)c1cnc(C#Cc2cccc3cccnc23)cc1Oc1cnc(N)nc1N` , no comment.
Return: 2.11

Enquiry: State recorded log10 IC50 with human P2X3 receptor (Homo sapiens (Human)), entry `CC(C)c1cnc(C(F)(F)F)cc1Oc1cnc(N)nc1N` , no comment.
Return: 2.69

Enquiry: State recorded log10 IC50 with human P2X3 receptor (Homo sapiens (Human)), entry `CC(C)c1cnc(C#Cc2cnc3cccnn23)cc1Oc1cnc(N)nc1N` , no comment.
Return: 2.50

Enquiry: State recorded log10 IC50 with human P2X3 receptor (Homo sapiens (Human)), entry `C#Cc1cc(Oc2cnc(N)nc2NCCO)c(C(C)C)cn1` , no comment.
Return: 1.81

Enquiry: State recorded log10 IC50 with human P2X3 receptor (Homo sapiens (Human)), entry `CC(C)c1cnc(Br)cc1Oc1cnc(N)nc1NC(CO)CO` , no comment.
Return: 1.92

Enquiry: State recorded log10 IC50 with human P2X3 receptor (Homo sapiens (Human)), entry `CCc1cc(Sc2cnc(N)nc2N)c(C(C)C)cn1` , no comment.
Return: 2.17

Enquiry: State recorded log10 IC50 with human P2X3 receptor (Homo sapiens (Human)), entry `COc1ccc(C#Cc2cc(Oc3cnc(N)nc3N)c(C(C)C)cn2)cc1` , no comment.
Return: 2.43
